# SYSTEM: GST-KIAA1634 PDZ domain 5 (Homo sapiens (Human)), Q5TCQ9
# Sequence (Q5TCQ9 other isoform, or with tags, fused parts or gaps): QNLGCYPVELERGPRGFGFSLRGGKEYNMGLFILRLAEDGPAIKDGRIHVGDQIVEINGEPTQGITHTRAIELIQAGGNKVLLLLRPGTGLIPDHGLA
# RUN DESCRIPTION: G' assay; note: key of the grades not given here
# Classification annotations
Give your result in A450 class as a bare value.

// worked examples, Classification included
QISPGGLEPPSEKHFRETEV (modifications not checked) [TAX]: 1
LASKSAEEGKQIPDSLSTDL (modifications not checked) [DOCK2]: 1

Next item in the queue.
**Query** Consider the binder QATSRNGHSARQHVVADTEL (modifications not checked) [CD34] and give its recorded Classification.
**Result** 1
